# ASSAYED_SYSTEM: Bcl-xL (Homo sapiens, UniProt Q07817)
# Construct: Measured levels of Bcl-xL protein of HCT116 cells treated with the tested compounds; host or cells: HCT116
# Sequence (Q07817 whole entry): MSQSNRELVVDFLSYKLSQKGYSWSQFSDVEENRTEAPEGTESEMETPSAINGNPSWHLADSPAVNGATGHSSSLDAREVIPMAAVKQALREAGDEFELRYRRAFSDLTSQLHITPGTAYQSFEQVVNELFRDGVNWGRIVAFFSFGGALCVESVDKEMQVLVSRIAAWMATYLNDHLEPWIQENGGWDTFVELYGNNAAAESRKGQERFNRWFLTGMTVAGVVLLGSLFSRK
# ASSAY_COMMENT: HCT116 Bcl-xL degradation, capillary-based immunoassay (WES)
# Format: cell-based
# CONDITIONS: HCT-116; HCT116, 100 nM, 24 h; % of untreated cells
remaining activity at 0.1 µM overview
Provide only the numeric value, understood in %.

Cc1cc(N(CCCCCn2cc(CCCCCCCNC(=O)COc3cccc4c3C(=O)N(C3CCC(=O)NC3=O)C4=O)nn2)c2ccc(-c3cnn(CC45CC6(C)CC(C)(C4)CC(OCCN(C)C)(C6)C5)c3C)c(C(=O)O)n2)nnc1Nc1nc2ccccc2s1 (centres unmarked) [Example 64] : 40

Please find the next compound below.
-- ask Hi! What's the reported remaining activity at 0.1 µM for Cc1ncsc1-c1ccc(CNC(=O)[C@@H]2C[C@@H](O)CN2C(=O)[C@@H](NC(=O)CCCC(=O)N2CCN(CC#Cc3ccc(OCCCc4sc(N5CCCc6c5nnc(Nc5nc7ccccc7s5)c6C)nc4C(=O)O)c(F)c3)CC2)C(C)(C)C)cc1 [Example 18] on Bcl-xL (Homo sapiens, UniProt Q07817)?
-- reply 52

###

# ASSAYED_SYSTEM: Bcl-xL (Homo sapiens)
# Construct: Measured levels of Bcl-xL protein of HCT116 cells treated with the tested compounds; host or cells: HCT116
# ASSAY_COMMENT: HCT116 Bcl-xL degradation, capillary-based immunoassay (WES)
# Format: cell-based
# CONDITIONS: HCT-116; HCT116, 10 nM, 24 h; % of untreated cells
# remaining activity at 0.01 µM values compiled below
Please give a number only; it is taken to be in %.

Cc1c(Nc2nc3ccccc3s2)nnc2c1CCCN2c1ccc(-c2cnn(CC34CC5(C)CC(C)(C3)CC(OCCN(C)CCCCCCCCCCOc3ccc6c(c3)C(=O)N(C3CCC(=O)NC3=O)C6=O)(C5)C4)c2C)c(C(=O)O)n1 (centres unmarked) : 19
Cc1ncsc1-c1ccc([C@H](C)NC(=O)C2C[C@@H](O)CN2C(=O)C(NC(=O)CCCCCC(=O)N2CCN(CC#Cc3ccc(OCCCc4sc(N5CCCc6c5nnc(Nc5nc7ccccc7s5)c6C)nc4C(=O)O)c(F)c3)CC2)C(C)(C)C)cc1 (stereo in doubt) : 32
Cc1cc(N(CCCCCn2cc(CCCCCCCNC(=O)COc3cccc4c3C(=O)N(C3CCC(=O)NC3=O)C4=O)nn2)c2ccc(-c3cnn(CC45CC6(C)CC(C)(C4)CC(OCCN(C)C)(C6)C5)c3C)c(C(=O)O)n2)nnc1Nc1nc2ccccc2s1 (centres unmarked) : 59

-- ask Using the record for Cc1ncsc1-c1ccc(CNC(=O)C2C[C@@H](O)CN2C(=O)C(NC(=O)CCCCCC(=O)N2CCN(CCOC34CC5(C)CC(C)(CC(Cn6ncc(-c7ccc(N8CCCc9c8nnc(Nc8nc%10ccccc%10s8)c9C)nc7C(=O)O)c6C)(C5)C3)C4)CC2)C(C)(C)C)cc1 (stereo in doubt) , report its remaining activity at 0.01 µM.
-- reply 68

-- ask // same read-out, input: Cc1cc(N(CCCCCn2cc(COCCOCCOCCNC(=O)COc3cccc4c3C(=O)N(C3CCC(=O)NC3=O)C4=O)nn2)c2ccc(-c3cnn(CC45CC6(C)CC(C)(C4)CC(OCCN(C)C)(C6)C5)c3C)c(C(=O)O)n2)nnc1Nc1nc2ccccc2s1 (centres unmarked)
-- reply 61

-- ask Follow-up item: Cc1ncsc1-c1ccc(CNC(=O)[C@@H]2C[C@@H](O)CN2C(=O)[C@@H](NC(=O)CCC(=O)N2CCN(CC#Cc3ccc(OCCCc4sc(N5CCCc6c5nnc(Nc5nc7ccccc7s5)c6C)nc4C(=O)O)c(F)c3)CC2)C(C)(C)C)cc1
-- reply 73

-- ask Now try Cc1ncsc1-c1ccc(CNC(=O)C2C[C@@H](O)CN2C(=O)C(NC(=O)CCCCCC(=O)N2CCN(CC#Cc3ccc(OCCCc4sc(N5CCCc6c5nnc(Nc5nc7ccccc7s5)c6C)nc4C(=O)O)c(F)c3)CC2)C(C)(C)C)cc1 (stereo in doubt) .
-- reply 39

-- ask Repeat with Cc1c(Nc2nc3ccccc3s2)nnc2c1CCCN2c1ccc(-c2cnn(CC34CC5(C)CC(C)(C3)CC(OCCN(C)CCOCCOCCOCCNc3cccc6c3C(=O)N(C3CCC(=O)NC3=O)C6=O)(C5)C4)c2C)c(C(=O)O)n1 (centres unmarked)
-- reply 83

###

# Tested on: MOLT-4 cells
# ASSAY_COMMENT: MOLT-4 cell viability, MTT assay
# Type: cell-based
# CONDITIONS: Homo sapiens, MOLT-4, 48 h
# Experimental: The MTT colorimetric assay is based on the mitochondrial reduction of tetrazolium salt by living cells. The viable cell number is proportional to the production of formazan salts, which can be read spectrophotometrically at 540 nm. The CTG luminescent assay (CellTiter GLO, Promega) is based on a reagent which lyses cells and measures total adenosine triphosphate (ATP) content. […] IC50, were calculated using standard four-parametric curve fitting. […]
REPORTED_METRIC: pIC50
Just so you know, pIC50 here is -log10 of the concentration in molar units; reply with that number alone.

Cc1cc(N(CCCCCn2cc(COCCOCCOCCNc3cccc4c3C(=O)N(C3CCC(=O)NC3=O)C4=O)nn2)c2ccc(-c3cnn(C[C@@]45C[C@]6(C)C[C@](C)(C4)C[C@](OCCN(C)C)(C6)C5)c3C)c(C(=O)O)n2)nnc1Nc1nc2ccccc2s1 (some centres unmarked) : 7.62

-- ask Look up pIC50 for this compound: CNCC#Cc1ccc(OCCCc2sc(N(CCCc3cn(CCCCCCCCNC(=O)COc4cccc5c4C(=O)N(C4CCC(=O)NC4=O)C5=O)nn3)c3cc(C)c(Nc4nc5ccccc5s4)nn3)nc2C(=O)O)c(F)c1 (centres unmarked)
-- reply 6.88

###

# ASSAYED_SYSTEM: Bcl-xL (Homo sapiens)
# Construct: Measured levels of Bcl-xL protein of HCT116 cells treated with the tested compounds; host or cells: HCT116
# ASSAY_COMMENT: HCT116 Bcl-xL degradation, capillary-based immunoassay (WES)
# Type: cell-based
# CONDITIONS: HCT-116; HCT116, 10 nM, 24 h; % of untreated cells
REPORTED_METRIC: remaining activity at 0.01 µM (%)
Return type: number; implicit unit %.

Cc1c(Nc2nc3ccccc3s2)nnc2c1CCCN2c1ccc(-c2cnn(CC34CC5(C)CC(C)(C3)CC(OCCN(C)CCCCCCOc3ccc6c(c3)C(=O)N(C3CCC(=O)NC3=O)C6=O)(C5)C4)c2C)c(C(=O)O)n1 (centres unmarked) [Example 14] : 81

// switching to the query compound
-- ask For Bcl-xL (Homo sapiens), provide remaining activity at 0.01 µM of Cc1ncsc1-c1ccc(CNC(=O)[C@@H]2CC(O)CN2C(=O)C(NC(=O)CCCCC(=O)N2CCN(CCOC34CC5(C)CC(C)(CC(Cn6ncc(-c7ccc(N8CCCc9c8nnc(Nc8nc%10ccccc%10s8)c9C)nc7C(=O)O)c6C)(C5)C3)C4)CC2)C(C)(C)C)cc1 (stereo in doubt) [Example 23] please.
-- reply 82

###

Listing of entries alongside the reported DC50.
# ASSAYED_SYSTEM: Bcl-xL (Homo sapiens, UniProt Q07817)
# Construct: Measured levels of Bcl-xL protein of HCT116 cells treated with the tested compounds; host or cells: HCT116
# ASSAY_COMMENT: HCT116 Bcl-xL degradation, capillary-based immunoassay (WES)
# Format: cell-based
# CONDITIONS: HCT116, 24 h, 9-point serial dilution

The following compounds have reported results that may help.
Cc1ncsc1-c1ccc([C@H](C)NC(=O)[C@@H]2C[C@@H](O)CN2C(=O)[C@@H](NC(=O)C2CCN(C(=O)CCCCCCCCCN(C)CCOC34CC5(C)CC(C)(CC(Cn6ncc(-c7ccc(N8CCCc9c8nnc(Nc8nc%10ccccc%10s8)c9C)nc7C(=O)O)c6C)(C5)C3)C4)CC2)C(C)(C)C)cc1 : > 316 nM
Cc1c(Nc2nc3ccccc3s2)nnc2c1CCCN2c1ccc(-c2cnn(CC34CC5(C)CC(C)(C3)CC(OCCN(C)CCCCCCCC(=O)N3CCC(c6ccc7c(c6)CN(C6CCC(=O)NC6=O)C7=O)CC3)(C5)C4)c2C)c(C(=O)O)n1 (stereo not shown) : > 316 nM
Cc1cc(N(CCCCN(C)C(=O)CCCCCCCCCSC(C)(C)[C@H](NC(=O)C2(F)CC2)C(=O)N2C[C@H](O)C[C@H]2C(=O)NCc2ccc(-c3scnc3C)cc2)c2ccc(-c3cnn(CC45CC6(C)CC(C)(C4)CC(OCCN(C)C)(C6)C5)c3C)c(C(=O)O)n2)nnc1Nc1nc2ccccc2s1 : > 316 nM

--- query ---
-- ask Please give the measured DC50 for this compound: Cc1c(Nc2nc3ccccc3s2)nnc2c1CCCN2c1ccc(-c2cnn(CC34CC5(C)CC(C)(C3)CC(OCCN(C)CCCCCCCCCCCCCCCOc3ccc6c(c3)C(=O)N(C3CCC(=O)NC3=O)C6=O)(C5)C4)c2C)c(C(=O)O)n1 (stereo not shown)
-- reply 0.681 nM

Reference for the values: patent US20240376094A2
